// provenance: PubChem BioAssay (NCI)

test.summary: NCI Yeast Anticancer Drug Screen. Data for the bub3 strain (AID 167)
condition.context: S. cerevisiae bub3 mutant strain, at 50.0 µM (retest, dose inferred, filed as 5.0)
The panel holds about 79,000 compounds, 15% with a hit somewhere; the sample as a whole holds those more often. Calls of active or inactive are those of the source. Rule as the data show it: active = growth inhibition above about 70%; inactive = the rest.
Result category, one only: 1.0 for active, 0.0 for inactive

O=C1C=C(c2ccccc2)O/C1=C\C(=O)c1ccc(Cl)cc1; 0.0
COc1ccc(NC(=O)CSC(N)=O)cc1; 0.0
COC(=O)c1ccc(C)cc1CC1Cc2cc(C)ccc2C1=O (stereo not given); 0.0
c1ccc2cc3nc4ccccc4nc3cc2c1; 0.0

Then there is this compound:
Q: # outcome recorded in this test, key = C=C1C(=O)[C@]23C[C@H]1CC[C@H]2[C@@]12CO[C@@H](O)[C@@H]1C(C)(C)[C@@H](O)C[C@@H]2OC3=O
Result: 1.0

* * *

test.summary: NCI Yeast Anticancer Drug Screen. Data for the mlh1 rad18 strain (AID 175)
condition.context: S. cerevisiae mlh1 rad18 strain growth inhibition; at 50.0 µM (retest, dose inferred, filed as 5.0); hits give high values
The panel holds about 79,000 compounds, 15% with a hit somewhere; the sample as a whole holds those more often.
measurement.kind: growth inhibition (%)
All answers are understood in %, so give the number only.

O=C(CNc1cccc(Cl)c1)Nn1c(-c2ccccc2)nc2ccccc2c1=O; 86
Cc1cccc[n+]1CC(=O)c1cccc(O)c1; -4
Clc1ccc(CNc2ccc(Cl)c(Cl)c2)cc1; 95
Oc1c(N2CCOCC2)cc(-c2cc(N3CCOCC3)c(O)c3ccccc23)c2ccccc12; 39
Cn1nc(N)c2cccnc21; 10

Q: Please give the measured growth inhibition for this molecule: ClC1=C(Cl)C(Cl)(C(Cl)(Cl)Cl)C(Cl)=C1Cl
Result: 98

Q: Looking for the measured growth inhibition of CC1=Nc2ccccc2C1C(Cc1ccccc1N)c1c(C)[nH]c2ccccc12 (configuration not stated) , can you help?
Result: 96

Q: Could you tell me which growth inhibition is on file for OC1c2ccccc2C2(O)C1C(c1ccccc1)C(c1ccccc1)C2(O)c1ccccc1 (configuration not stated) ?
Result: 94

Q: // lookup growth inhibition for O=C1CC2(CCN(CC3COc4ccccc4O3)CC2)C(=O)N1N1CCCCCC1 (configuration not stated)
Result: 75

Q: I'd like to know its growth inhibition. The molecule in question is CC1=NC(C)C(C)S1 (configuration not stated)
Result: 4

* * *

test.summary: NCI Yeast Anticancer Drug Screen. Data for the mec2-1 strain (AID 157)
condition.context: S. cerevisiae mec2-1 strain, at 50.0 µM (retest, dose inferred, filed as 5.0)
The panel holds about 79,000 compounds, 15% with a hit somewhere; the sample as a whole holds those more often. Activity calls are given as the source filed them. Rule as the data show it: active = growth inhibition above about 70%; inactive = the rest.
Bench note: report the call from 1 (yes) for active, 0 (no) for inactive

CC(CCOP(=O)(O)OCCC(C)CC(C)(C)C)CC(C)(C)C (stereo not drawn); 0 (no)
CCOC(=O)/C(=N/NS(=O)(=O)c1c(C)cc(C)cc1C)c1ccco1; 0 (no)

Now examine the next entry.
Q: Which outcome was assigned to CS(=O)(=O)OCCN(CCOS(C)(=O)=O)c1ccc(C=Nc2ccc3oc(=O)ccc3c2)cc1 in this test?
Result: 1 (yes)

* * *

test.summary: NCI Yeast Anticancer Drug Screen. Data for the bub3 strain (AID 167)
condition.context: S. cerevisiae bub3 mutant strain, at 50.0 µM, hits give high values
Compounds without any hit were thinned out: in the full panel of roughly 79,000, 15% have a hit.
measurement.kind: growth inhibition (%)
Lab book: enter the figure in %, no units written.

Answered cases to consult:
S=C(N/N=C/c1ccccn1)N1CCCCC1; 92
O=C(c1ccccc1)C(Br)C(Br)c1ccc(Cl)c(Cl)c1 (centres undefined); 13.1
Oc1ccc2c(ccc3ccccc32)c1; 99

Q: Give the measured growth inhibition of [O-][n+]1ccc(Br)c(/C=C/c2ccccc2)c1 .
Result: 24.6

* * *

test.summary: NCI Yeast Anticancer Drug Screen. Data for the rad50 strain (AID 155);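 also: 0% = growth of vehicle-only cultures of the same strain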
condition.context: S. cerevisiae rad50 strain growth inhibition; at 50.0 µM; hits give high values
The panel holds about 79,000 compounds, 15% with a hit somewhere; the sample as a whole holds those more often.
measurement.kind: growth inhibition (%)
Reply with just the number (in %).

COC1OC(CI)C(OC(c2ccccc2)(c2ccccc2)c2ccccc2)C(OC(c2ccccc2)(c2ccccc2)c2ccccc2)C1OC(c1ccccc1)(c1ccccc1)c1ccccc1 (stereo not given); 96.4
O=[N+]([O-])c1cccc2c[n+](Cc3ccccc3)ccc12; 41.7
COc1ccc2c(c1)CCC1C2CCC2(C)C(=O)C(SC3=NC=NC4=NC=NC43)CC12 (stereo not given); 97

Let us move to another entry and its growth inhibition.
Q: Need growth inhibition, item Oc1cc(O)cc(O)c1
Result: 15.7

* * *

test.summary: NCI Yeast Anticancer Drug Screen. Data for the sgs1 mgt1 strain (AID 161);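 also: 0% = growth of cultures given vehicle only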
condition.context: S. cerevisiae sgs1 mgt1 strain, at 50.0 µM, hits give high values
Experimental: Growth inhibition of yeast strains with defined genetic alterations is measured as a screen for potential anti-cancer activity. Selected strains with alterations in DNA damage repair or cell cycle control were exposed to compounds and growth inhibition was measured relative to vehicle treated controls. The strain used in this assay is sgs1 mgt1
About 79,000 compounds went through this panel and 15% of them were active in at least one assay; those are over-represented in the sample as a whole.
Recorded growth inhibition by entry
Give just the numeric value; % need not be written.

Here's what some known entries look like.
CC12C=C3CC(OC(=O)c4ccccc4)CCC3(O1)c1ccccc12 (configuration not stated); 90.1
O=C1N(Cc2ccccc2)CC1(c1ccccc1)C1CCCCC1O (configuration not stated); 35.5
ClC1=C(Cl)C(Cl)=C(Cl)C1; 48.5
COC1CC2CCC(C)[C@](O)(O2)C(=O)C(=O)N2CCCCC2C(=O)OC(C(C)CC2CCC(O)C(OC)C2)CC(=O)C(C)C=C(C)C(OC(=O)CCCN2CCCC2)C(OC)C(=O)C(C)CC(C)/C=C/C=C/C=C\1C (some centres not stated); 92.9

Q: Suppose we examine the compound CCOC(=O)/C(Cl)=C(\C)Nc1nc2c(ccc3ccccc32)s1 ; what growth inhibition value has been reported?
Result: -0.75

Q: What does the record list as growth inhibition for CCCCCCCC/C=C\CCCCCCCC(=O)OCCCCC ?
Result: 17.2

Q: Give its growth inhibition value. Item: COC(=O)C1=C(C)NC(C)=C([N+](=O)[O-])C1c1cccc(N=O)c1 (configuration not stated)
Result: 89.8

Q: Bench note: what growth inhibition did COc1cc([C@@H]2c3cc4c(cc3[C@@H](OC3OC5CO[C@@H](c6cccs6)OC5C(O)C3O)[C@H]3COC(=O)[C@H]23)OCO4)cc(OC)c1O (some centres not stated) show?
Result: 63.7

Q: Dear colleague, I am looking for the recorded growth inhibition of the following compound: Cc1sc(Cc2ccccc2)nc1-c1ccc(N=Cc2ccc(N(CCOS(C)(=O)=O)CCOS(C)(=O)=O)cc2)cc1
Result: 96.5

Q: For the compound O=[N+]([O-])c1cccc2c(O)cccc12 , what growth inhibition is on record?
Result: 39.1

Q: Reported growth inhibition, compound O=C(O)CC1c2ccc3ccccc3c2CCC1c1ccccc1 (configuration not stated) : ____
Result: 99.7

Q: Bench note: what growth inhibition did CCCCNC(=O)OCCN=C1c2ccccc2C(Br)C(Br)c2ccccc21 (configuration not stated) show?
Result: 97.3

Q: Can you share its growth inhibition? I mean this compound: CCCC/C=C1/CCC(CN(C)C)C1=O (configuration not stated)
Result: 81

Q: Report growth inhibition for CCN1CCC(O)(/C=C/c2ccc(Cl)c(Cl)c2)C(C(=O)/C=C/c2ccc(Cl)c(Cl)c2)C1 (configuration not stated) please.
Result: 99.5

Q: What does the data say about its growth inhibition? Entry: COc1ccc(/C=C/C(=N/NC(=O)c2ccccc2)C(C)CN(C)C)cc1 (configuration not stated)
Result: 6.9

Q: Query: growth inhibition; subject: Cc1cc([N+](=O)[O-])ccc1NC(=O)N(C)CCOC(=O)Nc1ccccc1
Result: 89.5

Q: Tell me the measured growth inhibition of O=C1C(=O)N(c2ccccc2)N=C1N=Nc1ccccc1 , please.
Result: 96.2

Q: So what's the measured growth inhibition for this one? CNC(=O)NN(C)C=O
Result: -7.95

Q: Query: growth inhibition; subject: COc1ccccc1OCC(COC(=O)Nc1ccc(C)cc1)OC(=O)Nc1ccc(C)cc1 (configuration not stated)
Result: 85.2

Q: Can you share its growth inhibition? I mean this compound: Nc1ccc(Cl)c2ccccc12
Result: 71.2

Q: Bench note: what growth inhibition did CCC(=O)N(CCC(C)C)c1ccccc1 show?
Result: -8.65

Q: Entry O=[N+]([O-])c1ccc(NS(=O)(=O)c2ccccc2)c(NS(=O)(=O)c2ccccc2)c1 has what growth inhibition?
Result: 83.2

Q: Need growth inhibition of NCCCCC(N)C(=O)Nc1ccc2ccccc2c1 (configuration not stated) , thanks.
Result: 99.2

Q: For O=C1C=CC(=O)c2cc(Sc3ccccc3)c(=O)ccc21 , what is its reported growth inhibition?
Result: 71.7

Q: Any idea what its growth inhibition is? The compound is CC1(C)CCC[C@@]2(C)C1CC[C@@]1(CO1)[C@@H]2/C=C\C(C=O)CC=O (some centres not stated)
Result: 94.5

Q: Quick check: growth inhibition of O=C1CSC(=S)N1c1ccc(I)cc1 ?
Result: 99.2
